# protocol-text: in vivo
# condition-notes: female, mouse, 25 mg/kg
Answer each item with its documented Kp at 5 h.
Give bare numbers.

Worked examples follow.
CC1(Nc2nc(N/N=C/c3ccc([N+](=O)[O-])o3)nc(N3CCOCC3)n2)CC1: 0.3
O=[N+]([O-])c1ccc(/C=N/Nc2nc(N3CCC3)nc(N3CCOCC3)n2)o1: 0.23

API: the following record is the query input.
Recorded Kp at 5 h for `O=[N+]([O-])c1ccc(/C=N/Nc2nc(Nc3ccccc3)nc(Nc3ccccc3)n2)o1` , please?
2.6

---

# measured-target: purified InhA (Mycobacterium tuberculosis)
# Sequence (P9WGR1 whole entry, looked up): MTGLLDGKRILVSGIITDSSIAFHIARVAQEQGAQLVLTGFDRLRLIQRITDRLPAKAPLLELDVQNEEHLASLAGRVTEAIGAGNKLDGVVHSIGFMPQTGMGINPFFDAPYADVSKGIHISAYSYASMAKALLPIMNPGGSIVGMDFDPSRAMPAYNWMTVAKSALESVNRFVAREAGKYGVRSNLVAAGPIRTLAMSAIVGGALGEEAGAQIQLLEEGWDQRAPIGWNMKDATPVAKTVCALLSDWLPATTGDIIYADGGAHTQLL
# protocol-text: biochemical
# Set-up: species or system M. tuberculosis
# condition-notes: InhA IC50
endpoint: IC50

Give its IC50 value. Item: O=[N+]([O-])c1ccc(/C=N/Nc2nc(Nc3ccccc3)nc(N3CCOCC3)n2)o1 [JSF-2513]
> 150 µM

Attribution: paper PMC7035970
